- Tested on: His6-OsnR (Corynebacterium glutamicum), ORF:93dbb295
- Sequence: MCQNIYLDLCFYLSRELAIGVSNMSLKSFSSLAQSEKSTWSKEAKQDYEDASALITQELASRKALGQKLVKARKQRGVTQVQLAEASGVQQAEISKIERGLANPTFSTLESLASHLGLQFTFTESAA
- protocol.details: EMSA
- measurement.context: 20 mM HEPES pH 7.4, 2.5 mM MgCl2, 75 mM KCl, 0.5 mM EDTA, 2 mM DTT, 10% glycerol, 1 ug poly d(I-C), 100 ng/ul BSA; 30 ng DNA in 20 ul, 30 C, 30 min; 5% PAGE …

sequence	assay.system	binding
CAAGCGTGGGGATTCCTGGCTCGATGCTCATGCTTCACTTCCTTATCTTTTGAAACCATGTGCAGCTGTTTTTCTCTTCATTTTTCTCTTCATACACTGACACAGTTCAACTCAATCAAATAGTCAACTATGCAAGGTAGTCGACTATGTGGCATAGTCGCCATAGTTGAGTTTTATTCATGGCTTTTAGCTAGGCGACTTTAGTTGAGGGCTTTTAGTTGAGGGCTTCCCAGCAGGGATGGTTAAGGAGAATTCAGTGAACCAACAGAGTAAAAAGTGGCTCGTACCGACACTGGT (double strand) [cg0026 promoter]	His6-OsnR (Corynebacterium glutamicum), ORF:93dbb295	binds

---

- Test system: His6-OsnR (Corynebacterium glutamicum), ORF:93dbb295
- Sequence: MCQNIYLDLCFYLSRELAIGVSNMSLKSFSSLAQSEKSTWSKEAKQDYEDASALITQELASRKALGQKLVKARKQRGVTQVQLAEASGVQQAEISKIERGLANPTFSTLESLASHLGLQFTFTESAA
- protocol.details: EMSA
- measurement.context: 20 mM HEPES pH 7.4, 2.5 mM MgCl2, 75 mM KCl, 0.5 mM EDTA, 2 mM DTT, 10% glycerol, 1 ug poly d(I-C), 100 ng/ul BSA; 30 ng DNA in 20 ul, 30 C, 30 min; 5% PAGE …

sequence	assay.system	binding
ACCGCTTCTAAGCACCCAACTCGCCAAAACTAGGACAACAGGTCGCCGCAGACAGTCGACCGCTTAAAACGCCACACAGCACCCCACTTCACATAACCCCAAGTCGGAAACAAAAGCCCCCAACCTGCACAGATGTCAACTATTTCAACCAGCCAGAAACTATCTCCAAAAGCTAATAAAACCCTTGCACTGACAAATAAGGCGACCTACCATGACTCTGTTTCCAACACATAAAAAGGATAAAAAATGTCACTTTCAGTCGTCGAGGCG (double strand) [cg0404 promoter]	His6-OsnR (Corynebacterium glutamicum), ORF:93dbb295	no binding
GGCGAGGCCACGTTCAATCTTGCTTATTTCTGCCTGTTGGACTCCAGAAGCTTCAGCAAGTTGAACTTGGGTGACTCCTCGTTGTTTCCGAGCCTTGACTAGTTTTTGGCCAAGAGCTTTTCGTGAGGCGAGTTCTTGAGTGATTAGCGCGGAAGCGTCCTCGTAATCTTG (double strand) [osnR ORF (+110 to +286)]	His6-OsnR (Corynebacterium glutamicum), ORF:93dbb295	no binding
GGCTGCTCAGACATAAGATGTGCTCCTAATTTAGAAATCGGATGTGGGCTGGACTGGGAAGGCAACTAACTGGTGCTTTGTCGTCCACGTATCTCAACGCATATGACTATAAAAAGCTTCCCAAGTACCAGTTCAGTCTATAATTCGCGGTGTTATTGAGATGGTTTGAGGCTGGAAAGCTTCGATTGCAGCCAGTTGTTGAGTACTTCAGAGGCGTGATCTCTGGCGGGTTTCCTTGAGAGGAAAATATCGTGGCGAGCGTTGTCGATGAT (double strand) [mtr promoter]	His6-OsnR (Corynebacterium glutamicum), ORF:93dbb295	no binding

---

- Test system: His6-OsnR (Corynebacterium glutamicum), ORF:93dbb295
- Sequence: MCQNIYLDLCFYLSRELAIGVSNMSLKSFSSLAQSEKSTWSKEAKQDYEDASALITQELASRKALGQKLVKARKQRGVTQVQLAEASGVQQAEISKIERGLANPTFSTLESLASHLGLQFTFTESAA
- protocol.details: EMSA
- measurement.context: 20 mM HEPES pH 7.4, 2.5 mM MgCl2, 75 mM KCl, 0.5 mM EDTA, 2 mM DTT, 10% glycerol, 1 ug poly d(I-C), 100 ng/ul BSA; 30 ng DNA in 20 ul, 30 C, 30 min; 5% PAGE …

sequence	binding
TTTGGTGGTGGGCAATGCTGCGACCATCTTTATGAATCTCATTGGCTGCCGGGAAGGCCGCGACCCCTTGCTGCTCATCGCGGTTCTCACGTTCCCGCTGTATTGGCTGCTCATGAGCATTGCAGCGTTGAAAGGCACGTGGCAATTGATCACGCGACCATCCTATTGGGAGAAAACTGCCCACGGATTGGAGGCGTAAGCGGTGCCCATCGTCAAACCAATGCCGGCACTG (double strand) [cg0165 promoter]	binds
